# key: entry, value: pIC50
test system: 941728-121-R-J1-PDC complex spheroid viability; assay: Anticancer human tumor 941728-121-R-J1-PDC patient-derived lung adenocarcinoma cell line growth inhibition [RAS]; details: curve of first compound; second compound 0.316 µM
pIC50: −log10 of the molar value.

- compound: "C=CC(=O)Nc1cc(Nc2nccc(-c3cn(C)c4ccccc34)n2)c(OC)cc1N(C)CCN(C)C + C#Cc1c(F)ccc2cc(O)cc(-c3ncc4c(N5CC6CCC(C5)N6)nc(OCC56CCCN5CC(F)C6)nc4c3F)c12"
  pIC50: 7.77
- compound: "C=CC(=O)N1CCN(c2nc(OCC3CCCN3C)nc3c(F)c(-c4nc(N)cc(C)c4C(F)(F)F)c(Cl)cc23)C(C)C1 (centres undefined) + C#Cc1c(F)ccc2cc(O)cc(-c3ncc4c(N5CC6CCC(C5)N6)nc(OCC56CCCN5CC(F)C6)nc4c3F)c12"
  pIC50: "> 8.50"
- compound: "Nc1ccn(C2OC(CO)C(O)C2(F)F)c(=O)n1 (centres undefined) + C#Cc1c(F)ccc2cc(O)cc(-c3ncc4c(N5CC6CCC(C5)N6)nc(OCC56CCCN5CC(F)C6)nc4c3F)c12"
  pIC50: 8.26
- compound: "CC(Nc1ccc2c(c1)OCCn1cc(N3C(=O)OCC3C(F)F)nc1-2)C(N)=O (centres undefined) + C#Cc1c(F)ccc2cc(O)cc(-c3ncc4c(N5CC6CCC(C5)N6)nc(OCC56CCCN5CC(F)C6)nc4c3F)c12"
  pIC50: "> 7.50"
- compound: "CC(C)NCC(C(=O)N1CCN(c2ncnc3c2C(C)CC3O)CC1)c1ccc(Cl)cc1 (centres undefined) + C#Cc1c(F)ccc2cc(O)cc(-c3ncc4c(N5CC6CCC(C5)N6)nc(OCC56CCCN5CC(F)C6)nc4c3F)c12"
  pIC50: 6.37
- compound: "C[C@@H](NC(=O)c1ncnc(N)c1Cl)c1ncc(C(=O)Nc2cc(C(F)(F)F)c(Cl)cn2)s1 + C=CC(=O)N1CCN(c2nc(OCC3CCCN3C)nc3c(F)c(-c4nc(N)cc(C)c4C(F)(F)F)c(Cl)cc23)C(C)C1"
  pIC50: "> 7.50"
- compound: "Cc1nc(N2CCC3(CC2)COC(C)C3N)c(CO)nc1Sc1ccnc(N)c1Cl (centres undefined) + C=CC(=O)N1CCN(c2nc(OCC3CCCN3C)nc3c(F)c(-c4nc(N)cc(C)c4C(F)(F)F)c(Cl)cc23)C(C)C1"
  pIC50: "> 7.50"
- compound: "C=CC(=O)Nc1cc(Nc2nccc(-c3cn(C)c4ccccc34)n2)c(OC)cc1N(C)CCN(C)C + C=CC(=O)N1CCN(c2nc(OCC3CCCN3C)nc3c(F)c(-c4nc(N)cc(C)c4C(F)(F)F)c(Cl)cc23)C(C)C1"
  pIC50: "> 8.50"

Please find the next compound below.
Request: What measured pIC50 goes with CC(=O)OC12COC1CC(O)C1(C)C(=O)C(O)C3=C(C)C(OC(=O)C(O)C(NC(=O)OC(C)(C)C)c4ccccc4)CC(O)(C(OC(=O)c4ccccc4)C21)C3(C)C (centres undefined) + C#Cc1c(F)ccc2cc(O)cc(-c3ncc4c(N5CC6CCC(C5)N6)nc(OCC56CCCN5CC(F)C6)nc4c3F)c12 ?
Result: > 7.50

* * *

test system: 941728-121-R-J1-PDC complex spheroid viability; experiment: Anticancer human tumor 941728-121-R-J1-PDC cell line growth inhibition [RAS]; settings: second compound 0.03 µM; first compound 0.0316 µM; stronger effect = lower value;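 note: spheroids exposed to compounds for 7 days before readout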;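 for viability, T/C: 100% = DMSO vehicle control viability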
outcome-measure: viability, T/C (%)
# number only, unit % dropped from output

- compound: "CCN1CCN(Cc2ccc(Nc3ncc(F)c(-c4cc(F)c5nc(C)n(C(C)C)c5c4)n3)nc2)CC1 + CCn1c(-c2cc(N3CCN(C)CC3)cnc2C(C)OC)c2c3cc(ccc31)-c1csc(n1)CC(NC(=O)C1CC1C)C(=O)N1CCCC(N1)C(=O)OCC(C)(C)C2"
  value-units: "%"
  viability, T/C: 11.8
- compound: "CC(Nc1ccc2c(c1)OCCn1cc(N3C(=O)OCC3C(F)F)nc1-2)C(N)=O (stereo not drawn) + CCn1c(-c2cc(N3CCN(C)CC3)cnc2C(C)OC)c2c3cc(ccc31)-c1csc(n1)CC(NC(=O)C1CC1C)C(=O)N1CCCC(N1)C(=O)OCC(C)(C)C2"
  value-units: "%"
  viability, T/C: 12.3
- compound: "C=CC(=O)N1CCN(c2nc(OCC3CCCN3C)nc3c(F)c(-c4nc(N)cc(C)c4C(F)(F)F)c(Cl)cc23)C(C)C1 (stereo not drawn) + CCn1c(-c2cc(N3CCN(C)CC3)cnc2C(C)OC)c2c3cc(ccc31)-c1csc(n1)CC(NC(=O)C1CC1C)C(=O)N1CCCC(N1)C(=O)OCC(C)(C)C2"
  value-units: "%"
  viability, T/C: 17.5
- compound: "O=C(c1ccc(F)c(F)c1Nc1ccc(I)cc1F)N1CC(O)([C@@H]2CCCCN2)C1 + CCn1c(-c2cc(N3CCN(C)CC3)cnc2C(C)OC)c2c3cc(ccc31)-c1csc(n1)CC(NC(=O)C1CC1C)C(=O)N1CCCC(N1)C(=O)OCC(C)(C)C2"
  value-units: "%"
  viability, T/C: 12.2
- compound: "NC1c2ccccc2OC12CCN(c1cnc3c(N4CCCc5ncccc54)n[nH]c3n1)CC2 (stereo not drawn) + CCn1c(-c2cc(N3CCN(C)CC3)cnc2C(C)OC)c2c3cc(ccc31)-c1csc(n1)CC(NC(=O)C1CC1C)C(=O)N1CCCC(N1)C(=O)OCC(C)(C)C2"
  value-units: "%"
  viability, T/C: 11.9

Request: Suppose we examine the compound CC(C)n1nc(-c2ccc3oc(N)nc3c2)c2c(N)ncnc21 + CCn1c(-c2cccnc2C(C)OC)c2c3cc(ccc31)N1CCOC(CC(NC(=O)C(C(C)C)N(C)C(=O)C3(F)CCN(C(=O)C#CC(C)(C)N(C)C)CC3)C(=O)N3CCCC(N3)C(=O)OCC(C)(C)C2)C1 ; what viability, T/C value has been reported?
Result: 8.83

Request: Could you do the same for CC(C)NCC(C(=O)N1CCN(c2ncnc3c2C(C)CC3O)CC1)c1ccc(Cl)cc1 (stereo not drawn) + CCn1c(-c2cccnc2C(C)OC)c2c3cc(ccc31)N1CCOC(CC(NC(=O)C(C(C)C)N(C)C(=O)C3(F)CCN(C(=O)C#CC(C)(C)N(C)C)CC3)C(=O)N3CCCC(N3)C(=O)OCC(C)(C)C2)C1 , please?
Result: 22.8

Request: Subsequent entry: Cc1nc(N2CCC3(CC2)COC(C)C3N)c(CO)nc1Sc1ccnc(N)c1Cl (stereo not drawn) + CCn1c(-c2cc(N3CCN(C)CC3)cnc2C(C)OC)c2c3cc(ccc31)-c1csc(n1)CC(NC(=O)C1CC1C)C(=O)N1CCCC(N1)C(=O)OCC(C)(C)C2
Result: 11.9

* * *

Below, each entry is listed with its recorded viability, T/C.
Tested on: 941728-121-R-J1-PDC complex spheroid viability
Assay: Anticancer human tumor 941728-121-R-J1-PDC cell line growth inhibition [RAS];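 note: spheroids exposed to compounds for 7 days before readout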;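 for viability, T/C: 100% = DMSO vehicle control viability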
Conditions: second compound 0.000949 µM; first compound 1 µM; stronger effect = lower value
Description: RAS pathway inhibitors in Combinations in Complex Spheroids A high-throughput screen of multi-cell type tumor spheroids was designed to identify active combinations of RAS pathway inhibitors and targeted small molecules. Complex spheroids include a stromal component modeled by human endothelial cells (HUVEC) and fibroblasts modeled by human mesenchymal stem cells (MSCs). […] Compounds. […] If the clinical Cmax for an agent had not been determined, the highest concentration tested was 10 microM. […]
Unit % implied. Number only.

Please review the following examples before continuing.
- compound: "C[C@@H](NC(=O)c1ncnc(N)c1Cl)c1ncc(C(=O)Nc2cc(C(F)(F)F)c(Cl)cn2)s1 + CCn1c(-c2cccnc2C(C)OC)c2c3cc(ccc31)N1CCOC(CC(NC(=O)C(C(C)C)N(C)C(=O)C3(F)CCN(C(=O)C#CC(C)(C)N(C)C)CC3)C(=O)N3CCCC(N3)C(=O)OCC(C)(C)C2)C1"
  viability, T/C [%]: 26.4
- compound: "Nc1ccn(C2OC(CO)C(O)C2(F)F)c(=O)n1 (stereo not drawn) + CCn1c(-c2cccnc2C(C)OC)c2c3cc(ccc31)N1CCOC(CC(NC(=O)C(C(C)C)N(C)C(=O)C3(F)CCN(C(=O)C#CC(C)(C)N(C)C)CC3)C(=O)N3CCCC(N3)C(=O)OCC(C)(C)C2)C1"
  viability, T/C [%]: 15.3

Now take the following compound into account.
Request: What value of viability, T/C has been recorded for this entry: CC(Nc1ccc2c(c1)OCCn1cc(N3C(=O)OCC3C(F)F)nc1-2)C(N)=O (stereo not drawn) + CCn1c(-c2cc(N3CCN(C)CC3)cnc2C(C)OC)c2c3cc(ccc31)-c1csc(n1)CC(NC(=O)C1CC1C)C(=O)N1CCCC(N1)C(=O)OCC(C)(C)C2
Result: 21.3
